B1: Zinc finger homeobox protein 3, residues 2643 to 2698; numbered along this chain, Q15911 (parent)
chain: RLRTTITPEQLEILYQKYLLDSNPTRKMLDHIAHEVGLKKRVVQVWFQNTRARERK

# Variants of: B1
# assayText: abundance fitness (aPCA) (normalised: wild type 0, dead -1); higher = more abundant; growth selection in yeast, the domain comes from the species named
# conditionSet: Homo sapiens
readout: abundance fitness

INSERT INTO assay_data (polymersequence, measured) VALUES
  ('RLRTTITPEQLEILYQKYLMDSNPTRKMLDHIAHEVGLKKRVVQVWFQNTRARERK [L20M]', 0.093),
  ('RLRTTITPEQLEILYQKYLLDSNPTRKMLCHIAHEVGLKKRVVQVWFQNTRARERK [D30C]', -0.486),
  ('RLRTRITPEQLEILYQKYLLDSNPTRKMLDHIAHEVGLKKRVVQVWFQNTRARERK [T5R]', -0.498),
  ('RLRTTITPEQLEILYQKYLLDSNPTRKMPDHIAHEVGLKKRVVQVWFQNTRARERK [L29P]', -0.8),
  ('RLRTSITPEQLEILYQKYLLDSNPTRKMLDHIAHEVGLKKRVVQVWFQNTRARERK [T5S]', -0.25),
  ('RLRTTITPEQLEILYQKYLLDSNPTRKMLDHIAHEVGLKKRVVHVWFQNTRARERK [Q44H]', -0.038),
  ('RLRTTITPEQLEILYQKYLLDSNPTRKMLDHIAHEVGLKKRVLQVWFQNTRARERK [V43L]', -0.485),
  ('RLRTTITPEQLEILYQKYLLDQNPTRKMLDHIAHEVGLKKRVVQVWFQNTRARERK [S22Q]', 0.037),
  ('RLRTTITPEQLEILYQKYLLDSNPTRKMLDHIDHEVGLKKRVVQVWFQNTRARERK [A33D]', -0.866),
  ('RLRTTITPEQLEILYQKYLLDSNPTRKMLDHIAHYVGLKKRVVQVWFQNTRARERK [E35Y]', -0.556),
  ('RLRTTITPEQLEILYQKYLLDSNPARKMLDHIAHEVGLKKRVVQVWFQNTRARERK [T25A]', -0.243),
  ('RLRTTITPFQLEILYQKYLLDSNPTRKMLDHIAHEVGLKKRVVQVWFQNTRARERK [E9F]', -0.495),
  ('RLRTTITPEQLEILYQKYLLDSNPTRKMLDHIAHEVGLKKRVVQVHFQNTRARERK [W46H]', -0.897),
  ('RLRTTITPEQLEILYQKYLLDSNPTRKMLDHIAHEVGLKKRVVQVWDQNTRARERK [F47D]', -0.833),
  ('RLRTTITPEQLEILYQKYLLDSNPRRKMLDHIAHEVGLKKRVVQVWFQNTRARERK [T25R]', -0.753),
  ('RLRTTITPEQLEILYQKYLLDSNPTRKMLDHIAHEVGLKKRVVQVWFQNTRARTRK [E54T]', -0.361),
  ('RLRTTITPEQLEILYQKYLLDSNPTRKMLDHIAHEVGLKKRVVQVWFQNTRARESK [R55S]', 0.347),
  ('RLRTTITPEQLEILYQKYLLDSNPTRKMLDHIAHEPGLKKRVVQVWFQNTRARERK [V36P]', -1),
  ('RLRTTITPEQLEILYQKYLLDHNPTRKMLDHIAHEVGLKKRVVQVWFQNTRARERK [S22H]', -0.24),
  ('RLRTTITPEQLEILYQKYLLDSNPTRKMLDHIAHEVGLKKRVFQVWFQNTRARERK [V43F]', -0.815),
  ('RLRTTITPEQLEILYQKYLLDSNPTRKMLDHIAHEVGLKKRVVQVWMQNTRARERK [F47M]', -0.522),
  ('RLRTTITPEQLEILYQKYLLDSNPTRKMLDHIAHEVGLKKRVVQVWQQNTRARERK [F47Q]', -0.887),
  ('RLRTTITPEQLEILLQKYLLDSNPTRKMLDHIAHEVGLKKRVVQVWFQNTRARERK [Y15L]', 0.016),
  ('RLRTTITPEQLEILYQKYLLDSNPTRKMLDHIAHEVGLKKRVVQVWFQDTRARERK [N49D]', 0.172),
  ('RLRTTITPEGLEILYQKYLLDSNPTRKMLDHIAHEVGLKKRVVQVWFQNTRARERK [Q10G]', -0.854),
  ('RLRTTITPEQLEILYQKYLLDSNPTRKMLDHIAHEVGLKKRVVQVWFQKTRARERK [N49K]', 0.011),
  ('RLRTTITPEQLEILYQKYLLDSNPTRKMLDHIAHEVGLKKRVVQVWSQNTRARERK [F47S]', -0.946),
  ('RLRTTITPEQLEILYMKYLLDSNPTRKMLDHIAHEVGLKKRVVQVWFQNTRARERK [Q16M]', 0.225),
  ('RLRTTITPEQLEILYQKYLLDSNPTRKMLGHIAHEVGLKKRVVQVWFQNTRARERK [D30G]', -0.073),
  ('RLRTHITPEQLEILYQKYLLDSNPTRKMLDHIAHEVGLKKRVVQVWFQNTRARERK [T5H]', -0.784),
  ('RLRTTITPEQLEILYQKYLLDSNPTRKMLDHIAHEVGLKKRVVQVWFQNTRATERK [R53T]', 0.029),
  ('RLRTTITPEQLEILYQKYLLDSNPTRKMLDHIAHEVGLKKNVVQVWFQNTRARERK [R41N]', 0.2),
  ('RLRTTITPEQLEILYQKYLLDSNPTRKMLDHIAHEVGLKKRVVQVWRQNTRARERK [F47R]', -0.757),
  ('RLRTTITPEQLEILYQKYLLFSNPTRKMLDHIAHEVGLKKRVVQVWFQNTRARERK [D21F]', -0.373),
  ('RLRTTITPEQLEILYQKYLLDSNPTRKMLDHIAHEVGLKNRVVQVWFQNTRARERK [K40N]', 0.238),
  ('RLRTTITPEQLEILYQKYLLDSNPTGKMLDHIAHEVGLKKRVVQVWFQNTRARERK [R26G]', 0.386),
  ('RLRTTITPEQLEILYQKYLLDRNPTRKMLDHIAHEVGLKKRVVQVWFQNTRARERK [S22R]', -0.526),
  ('RLRTTITPEQLEILYQKYLLDSNPTRKMLDHIAHEWGLKKRVVQVWFQNTRARERK [V36W]', -0.495),
  ('RLRTTITPEQLEILQQKYLLDSNPTRKMLDHIAHEVGLKKRVVQVWFQNTRARERK [Y15Q]', 0.244),
  ('RLRTTITPEQLEILYQKYLLDSNPTHKMLDHIAHEVGLKKRVVQVWFQNTRARERK [R26H]', 0.324),
  ('RLRTTITPEQLEILYQKYLLDSNPTRKMHDHIAHEVGLKKRVVQVWFQNTRARERK [L29H]', -0.766),
  ('RLRTTITPEQLEILYQKYLLDSNPFRKMLDHIAHEVGLKKRVVQVWFQNTRARERK [T25F]', -0.605),
  ('TLRTTITPEQLEILYQKYLLDSNPTRKMLDHIAHEVGLKKRVVQVWFQNTRARERK [R1T]', 0.504),
  ('RLRTTITPEQLEILFQKYLLDSNPTRKMLDHIAHEVGLKKRVVQVWFQNTRARERK [Y15F]', -0.444),
  ('RLRTTITPEQLEILYQKYLLDSNPTRKMLDHIAHEVGLKKRRVQVWFQNTRARERK [V42R]', -0.44),
  ('RLRTTITPEQLEILYQKILLDSNPTRKMLDHIAHEVGLKKRVVQVWFQNTRARERK [Y18I]', -0.62);
